log10(IC50) values, listed per item
target: Substance-P receptor (Bos taurus); assay: inhibition of [3H]Sar-SP binding to Tachykinin receptor 1 of bovine retina membranes
endpoint.name: log10(IC50) (log10 of the value in nM)

| compound | log10(IC50) |
| --- | --- |
| CN(C)CCCNC(=O)c1ccc(-c2ccc(Cl)cc2)c(N(C)C(=O)c2cc(C(F)(F)F)cc(C(F)(F)F)c2)c1 | 0.00 |
| CN(C(=O)c1cc(C(F)(F)F)cc(C(F)(F)F)c1)c1cc(C(=O)N[C@@H]2CCCCNC2=O)ccc1-c1ccc(Cl)cc1 | 0.43 |
| CN(C(=O)c1cc(C(F)(F)F)cc(C(F)(F)F)c1)c1cc(C(=O)N[C@@H]2CCCCNC2=O)ccc1-c1ccc(F)cc1 | 0.00 |
| CN(C(=O)c1cc(C(F)(F)F)cc(C(F)(F)F)c1)c1cc(C(=O)NC2CCCCC2)ccc1-c1ccc(F)cc1 | 1.53 |
| CN(C)C(=O)c1ccc(-c2ccc(Cl)cc2)c(N(C)C(=O)c2cc(C(F)(F)F)cc(C(F)(F)F)c2)c1 | 0.60 |
| Cc1ccc(-c2ccc(C(=O)N[C@@H]3CCCCNC3=O)cc2N(C)C(=O)c2cc(C(F)(F)F)cc(C(F)(F)F)c2)cc1 | 0.78 |
| CN(C(=O)c1cc(C(F)(F)F)cc(C(F)(F)F)c1)c1cc(C(=O)N[C@@H]2CCCCNC2=O)ccc1-c1ccc(Cl)c(Cl)c1 | -0.10 |
| COc1cc(C(=O)N(C)c2cc(C(=O)N[C@@H]3CCCCNC3=O)ccc2-c2ccc(Cl)cc2)cc(OC)c1OC | 1.11 |
| COc1cc(C(=O)Nc2cc(C(=O)NC3CCCCNC3=O)ccc2-c2ccc(Cl)cc2)cc(OC)c1OC (centres undefined) | -0.15 |
